metabolised at 0.25 h, 1 µM by entry:
- Protocol notes: Drug metabolism in mouse liver microsomes at 1 uM after 15 mins by LC-MS/MS analysis
- Assay type: ADME, microsome
- Condition description: read-out: Drug metabolism
Experimental endpoint: metabolised at 0.25 h, 1 µM (%)

{"Compound structure string": "CCc1cc(NC(=O)c2cccc(S(=O)(=O)NC(C)C)c2)ccc1F", "Endpoint result": 88}
{"Compound structure string": "O=S(=O)(NC1CCCCC1)c1ccc(F)c(-c2ncc(-c3ccccc3)[nH]2)c1", "Endpoint result": 99}
{"Compound structure string": "O=C(Nc1ccc(F)cc1)c1cccc(S(=O)(=O)N[C@H]2CCOC2)c1", "Endpoint result": 29}
{"Compound structure string": "O=C(Nc1ccccc1)c1cc(S(=O)(=O)NC2CCCCC2)ccc1F", "Endpoint result": 100}
{"Compound structure string": "CC(C)NS(=O)(=O)c1cccc(C(=O)Nc2ccc(F)c(C3CC3)c2)c1", "Endpoint result": 61}
{"Compound structure string": "CN1CCN(S(=O)(=O)c2cccc(C(=O)Nc3ccc(F)cc3)c2)CC1", "Endpoint result": 84}
{"Compound structure string": "CN(C)S(=O)(=O)c1cccc(C(=O)Nc2ccc(F)cc2)c1", "Endpoint result": 89}
{"Compound structure string": "O=C(Nc1ccc(F)cc1)c1ccc(Cl)c(S(=O)(=O)N2CCCCCC2)c1", "Endpoint result": 100}
{"Compound structure string": "CN(C1CCCC1)S(=O)(=O)c1cccc(C(=O)Nc2ccc(F)cc2)c1", "Endpoint result": 100}
{"Compound structure string": "CC(C)NS(=O)(=O)c1cccc(C(=O)Nc2ccc(F)cc2)c1", "Endpoint result": 61}
